FYI, the data here is from the DeepSol protein solubility set.

test: soluble on expression in E. coli; label from the status in PepcDB or PDB records
measuredProperty: soluble on expression in E. coli

Here is how some sequences turned out for soluble on expression in E. coli.
{"sequenceInput": "MLTWSTSATSSKPTLRGKIPNSKAAEEFLDSWDNAVFDGKSTGDPELDREASLWRDKFPHLRITGSRFESQKVTHPIPVDSLSFQKSIIQHSKSANAIREKLPKIDNFKKK", "result": "not soluble"}
{"sequenceInput": "MTEAKIVDISSKDIVLREAVVEGYIKLRKETIEKIKNKEVEKGDVITVAKTAGILAAKKTPELIPMCHPIPLEFVDVEIKIEEEGLRVISTVKAHYKTGVEMEALTATSVALLTIWDMVKKYEKDENGQYPYTEIKSIRVINKIKTYDDMK", "result": "soluble"}
{"sequenceInput": "MGSDKIHHHHHHMDILTGKCSDRFMAHVLKRRDQEAVRWYVLTLPTAGGGRDRISPSKGLDAELSRRERRGEALFEYFSPSYVEARKVGGKMVNTRQPLLYNYVFVHASEDEIFRLKRTLPLYNFLPRVSSGGRSYFPYLSDREMDTLRWVAASYSNELPVYVPDSGRLLKGDRVRITSGPFTDMEAEVVVQPGGGHKDVMVRILDCLWVPLFEVRAGEYELIELNTGGKHVYTHLDNDRLSEGLHDALGRYHASGVVVDEDACLAREVLRGYASLRAETDVIRCKLYSLLLPAYLLLGESDEFDRLRSTMRSMLPVIKAGQSRALLLVTLYGCTDSSLYQRMAHELVDPWQEEASPKKSKTVLIRRLRDYDRWLKHNE", "result": "not soluble"}
{"sequenceInput": "MGSDKIHHHHHHMSENHWENQPGTPPDVTPECGQESDGERLYLWRQIVHWRSGTGGSQCNPLIELDKQNHWSVMNGGATGASGWLLVPTDRKKGIECRDIWTHRDPNYWNAAWGYVRSPYGSPTTTGLGINSKDKRTQDQLHIHIATFQSDAKTYLDARSPSEIATTPGDWAKKLLTVPSDSKPGQVYRVLHVKDLATDNLFNLLQSNVVSSDQMGNQTMIVIPAKSGGFYVLNSDISLSQGAAFGTGTCNHLLKCS", "result": "not soluble"}
{"sequenceInput": "GPGSMITEGAATPCAEVPAIRRVRRTRSRFERLVRPEDVAPGEPTPSVEGWVLFLTNLPPNTTMDHITDLFVTREGEGLWNVREVKMPLDKNCECCGYALVELEKREAFEAALRDMEGMTLSFAEGEPPNGEDAWRLHIAPTFLGEKDDEEEELVAGGKRERE", "result": "soluble"}
{"sequenceInput": "MWRVVFDCEEAVRWLRQAKHTLESIRVDYEGGFYSWACFKANQAAEYSIKAVLRAAGLESFGHDLMALWRRARSLCQPLQEMEECIAVLNKLYLPPRYPDAWPGGAAPFENYTRRDAEEALECASRVYRAVEECLGEECEDS", "result": "soluble"}
{"sequenceInput": "MAEASSLVGKLETEVEIKASAKKFHHMFTERPHHVSKATPDKIHGYGKLTVGKNKIEAVDPEKNLITFKVLEGDLMNEYKSFAFTLQVTPKQGESGSIAHWHLEYEKISEEVAHPETLLQFCVEISKEIDEHLLAEE", "result": "soluble"}
{"sequenceInput": "TAPSQVLKIRRPDDWHLHLRDGDMLKTVVPYTSEIYGRAIVMPNLAPPVTTVEAAVAYRQRILDAVPAGHDFTPLMTCYLTDSLDPNELERGFNEGVFTAAKLYPANAVTNSSHGVTSVDAIMPVLERMEKIGMPLLVHGEVTHADIDIFDREARFIESVMEPLRQRLTALKVVFEHITTKDAADYVRDGNERLAATITPQHLMFNRNHMLVGGVRPHLYCLPILKRNIHQQALRELVASGFNRVFLGTDSAPHARHRKESSCGCAGCFNAPTALGSYATVFEEMNALQHFEAFCSVNGPQFYGLPVNDTFIELVREEQQVAESIALTDDTLVPFLAGETVRWSVKQ", "result": "soluble"}
{"sequenceInput": "GMKTIIRQPQLYRFLKYCNESNLDKTVLDCGAGGDLPPLSIFVEDGYKTYGIEISDLQLKKAENFSRENNFKLNISKGDIRKLPFKDESMSFVYSYGTIFHMRKNDVKEAIDEIKRVLKPGGLACINFLTTKDERYNKGEKIGEGEFLQLERGEKVIHSYVSLEEADKYFKDMKVLFKEDRVVERINDGLKIKQGYVDYIAEKFSKSIL", "result": "soluble"}
{"sequenceInput": "MLRISRDLVIDEDDIEIGFVRASGPGGQNVNKVATSAQLRFDTRKLTLPEDATIRLARIAGQRMTKDGVIVIHAQRFRTQERNRQDAIDRLVEILSEALEHHHHHH", "result": "not soluble"}

*Q* Look up soluble on expression in E. coli for this sequence: MSLDKLQRISEAIKSKKKLVVMFSGGVDSTLLAKLAREVLGKNAVALTIDSPVIPRKEIEEAKNLANLIGIRHEFIELNELKSRHLIENPPDRCYLCRKLRDNIVKNWARENGFDVIADGLNFSDLQDYRPGVKASTEDGIWHPFIDFEVTKEEIREYSKKLGLPTWDKPAMACLCSRFPYGFGLNEERVRMVEKAENFLRELGFREVRVRFFPYKTAVVEVGRDEMELLMGKRTDIVLALQKIGFSFVTLDLEGFASGKLNRTIEGMSKEGGSHHHHHH
*A* soluble

*Q* I would be grateful if you could share the reported soluble on expression in E. coli for GIFPAEIEDLAQKQVAVDLTQPSRFLLKVLAGANIGAEFHLDSGKTYIVGSDPQVADIVLSDMSISRQHAKIIIGNDNSVLIEDLGSKNGVIVEGRKIEHQSTLSANQVVALGTTLFLLVDYAAPS .
*A* soluble

*Q* Please look up its soluble on expression in E. coli: LATMKDVARLAGVSTSTVSHVINKDRFVSEAITAKVEAAIKELNYAPSALARSLKLNQTHTIGMLITASTNPFYSELVRGVERSCFERGYSLVLCNTEGDEQRMNRNLETLMQKRVDGLLLLCTETHQPSREIMQRYPTVPTVMMDWAPFDGDSDLIQDNSLLGGDLATQYLIDKGHTRIACITGPLDKTPARLRLEGYRAAMKRAGLNIPDGYEVTGDFEFNGGFDAMRQLLSHPLRPQAVFTGNDAMAVGVYQALYQAELQVPQDIAVIGYDDIELASFMTPPLTTIHQPKDELGELAIDVLIHRITQPTLQQQRLQLTPILMERGSA
*A* soluble
